# Tested on: LG0703-F948-PDC spheroids with HUVEC/MSC, viability
# protocol-notes: Anticancer human tumor LG0703-F948-PDC patient-derived lung adenocarcinoma cell line growth inhibition [IpAb]; active = viability on the fitted dose curve at most 10% of control; inactive = the rest
# experimental-conditions: second compound 1 µM; first compound 3.16 µM
Select the correct class. Options are active, inactive and nothing else.

Here are 3 compounds together with their reported answers.
[[record]]
compound = "CCCS(=O)(=O)Nc1ccc(F)c(C(=O)c2c[nH]c3ncc(-c4ccc(Cl)cc4)cc23)c1F + CC(C)NCC(C(=O)N1CCN(c2ncnc3c2C(C)CC3O)CC1)c1ccc(Cl)cc1"
group_label = "inactive"

[[record]]
compound = "Cn1ncc(Cl)c1-c1cc(C(=O)NC(CN)Cc2cccc(F)c2)sc1Cl (centres undefined) + CCN1CCN(Cc2ccc(Nc3ncc(F)c(-c4cc(F)c5nc(C)n(C(C)C)c5c4)n3)nc2)CC1"
group_label = "active"

[[record]]
compound = "C=CCn1c(=O)c2cnc(Nc3ccc(N4CCN(C)CC4)cc3)nc2n1-c1cccc(C(C)(C)O)n1 + CCN1CCN(Cc2ccc(Nc3ncc(F)c(-c4cc(F)c5nc(C)n(C(C)C)c5c4)n3)nc2)CC1"
group_label = "inactive"


Any idea what this test logged for C=CCn1c(=O)c2cnc(Nc3ccc(N4CCN(C)CC4)cc3)nc2n1-c1cccc(C(C)(C)O)n1 + CC(C)NCC(C(=O)N1CCN(c2ncnc3c2C(C)CC3O)CC1)c1ccc(Cl)cc1 ?
active

----------
# Tested on: LG0703-F948-PDC spheroids with HUVEC/MSC, viability
# protocol-notes: Anticancer human tumor LG0703-F948-PDC cell line growth inhibition [IpAb];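 also: spheroids exposed to compounds for seven days before readout; T/C percent relative to DMSO vehicle wells set as 100% viability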
# experimental-conditions: second compound 0.0316 µM; first compound 3.16 µM; stronger effect = lower value
observation-type: viability, T/C

Sample answers from the record:
[[record]]
compound = "CCCS(=O)(=O)Nc1ccc(F)c(C(=O)c2c[nH]c3ncc(-c4ccc(Cl)cc4)cc23)c1F + CCN1CCN(Cc2ccc(Nc3ncc(F)c(-c4cc(F)c5nc(C)n(C(C)C)c5c4)n3)nc2)CC1"
result = "90.9%"

[[record]]
compound = "C=CCn1c(=O)c2cnc(Nc3ccc(N4CCN(C)CC4)cc3)nc2n1-c1cccc(C(C)(C)O)n1 + CCN1CCN(Cc2ccc(Nc3ncc(F)c(-c4cc(F)c5nc(C)n(C(C)C)c5c4)n3)nc2)CC1"
result = "16.6%"

[[record]]
compound = "C=CC(=O)N1CCN(c2nc(=O)n(-c3c(C)ccnc3C(C)C)c3nc(-c4c(O)cccc4F)c(F)cc23)C(C)C1 (stereo not given) + CCN1CCN(Cc2ccc(Nc3ncc(F)c(-c4cc(F)c5nc(C)n(C(C)C)c5c4)n3)nc2)CC1"
result = "99.2%"

[[record]]
compound = "Cn1nccc1Nc1nccc(-c2ccn(C(CO)c3ccc(Cl)c(F)c3)c(=O)c2)n1 (stereo not given) + CCN1CCN(Cc2ccc(Nc3ncc(F)c(-c4cc(F)c5nc(C)n(C(C)C)c5c4)n3)nc2)CC1"
result = "76.6%"


Form field - read-out: viability, T/C; system: LG0703-F948-PDC spheroids with HUVEC/MSC, viability; submitted item: Cn1ncc(Cl)c1-c1cc(C(=O)NC(CN)Cc2cccc(F)c2)sc1Cl (stereo not given) + CCN1CCN(Cc2ccc(Nc3ncc(F)c(-c4cc(F)c5nc(C)n(C(C)C)c5c4)n3)nc2)CC1
13.3%

----------
# Tested on: LG0703-F948-PDC spheroids with HUVEC/MSC, viability
# protocol-notes: Anticancer human tumor LG0703-F948-PDC cell line growth inhibition [IpAb];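 also: spheroids exposed to compounds for seven days before readout; T/C percent relative to DMSO vehicle wells set as 100% viability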
# experimental-conditions: second compound 0.1 µM; first compound 1 µM; stronger effect = lower value
# Method: Combinatorial screen of targeted agents with ipatasertib and abemaciclib in multi-cell type tumor spheroids […] Compounds. […] If the clinical Cmax for an agent had not been determined, the highest concentration tested was 10 microM. NCI60 Cell Culture. […] The optimal seeding densities for each of the cell lines at each time point assessed were determined prior to performing the concentration response studies. […]
Please go through the items and note down their viability, T/C.
Numbers only, in %.

Some molecules with known viability, T/C results, for comparison:
[[record]]
molecule = "C=CCn1c(=O)c2cnc(Nc3ccc(N4CCN(C)CC4)cc3)nc2n1-c1cccc(C(C)(C)O)n1 + CC(C)NCC(C(=O)N1CCN(c2ncnc3c2C(C)CC3O)CC1)c1ccc(Cl)cc1"
measured_on = "LG0703-F948-PDC spheroids with HUVEC/MSC, viability"
unit = "%"
quantitative_result = 40.5

[[record]]
molecule = "COc1c(OCCCN2CCOCC2)ccc2c3n(c(=NC(=O)c4cnc(N)nc4)nc12)CCN3 + CC(C)NCC(C(=O)N1CCN(c2ncnc3c2C(C)CC3O)CC1)c1ccc(Cl)cc1"
measured_on = "LG0703-F948-PDC spheroids with HUVEC/MSC, viability"
unit = "%"
quantitative_result = 4.98

[[record]]
molecule = "C=CC(=O)N1CCN(c2nc(=O)n(-c3c(C)ccnc3C(C)C)c3nc(-c4c(O)cccc4F)c(F)cc23)C(C)C1 (centres undefined) + CC(C)NCC(C(=O)N1CCN(c2ncnc3c2C(C)CC3O)CC1)c1ccc(Cl)cc1"
measured_on = "LG0703-F948-PDC spheroids with HUVEC/MSC, viability"
unit = "%"
quantitative_result = 91.1

[[record]]
molecule = "C=CC(=O)N1CCN(c2nc(=O)n(-c3c(C)ccnc3C(C)C)c3nc(-c4c(O)cccc4F)c(F)cc23)C(C)C1 (centres undefined) + CCN1CCN(Cc2ccc(Nc3ncc(F)c(-c4cc(F)c5nc(C)n(C(C)C)c5c4)n3)nc2)CC1"
measured_on = "LG0703-F948-PDC spheroids with HUVEC/MSC, viability"
unit = "%"
quantitative_result = 94.5

[[record]]
molecule = "Cn1nccc1Nc1nccc(-c2ccn(C(CO)c3ccc(Cl)c(F)c3)c(=O)c2)n1 (centres undefined) + CCN1CCN(Cc2ccc(Nc3ncc(F)c(-c4cc(F)c5nc(C)n(C(C)C)c5c4)n3)nc2)CC1"
measured_on = "LG0703-F948-PDC spheroids with HUVEC/MSC, viability"
unit = "%"
quantitative_result = 58.9

[[record]]
molecule = "Cn1nccc1Nc1nccc(-c2ccn(C(CO)c3ccc(Cl)c(F)c3)c(=O)c2)n1 (centres undefined) + CC(C)NCC(C(=O)N1CCN(c2ncnc3c2C(C)CC3O)CC1)c1ccc(Cl)cc1"
measured_on = "LG0703-F948-PDC spheroids with HUVEC/MSC, viability"
unit = "%"
quantitative_result = 39.7

[[record]]
molecule = "COc1c(OCCCN2CCOCC2)ccc2c3n(c(=NC(=O)c4cnc(N)nc4)nc12)CCN3 + CCN1CCN(Cc2ccc(Nc3ncc(F)c(-c4cc(F)c5nc(C)n(C(C)C)c5c4)n3)nc2)CC1"
measured_on = "LG0703-F948-PDC spheroids with HUVEC/MSC, viability"
unit = "%"
quantitative_result = 3.57

[[record]]
molecule = "CC1(C)CCC(CN2CCN(c3ccc(C(=O)NS(=O)(=O)c4ccc(NCC5CCOCC5)c([N+](=O)[O-])c4)c(Oc4cnc5[nH]ccc5c4)c3)CC2)=C(c2ccc(Cl)cc2)C1 + CCN1CCN(Cc2ccc(Nc3ncc(F)c(-c4cc(F)c5nc(C)n(C(C)C)c5c4)n3)nc2)CC1"
measured_on = "LG0703-F948-PDC spheroids with HUVEC/MSC, viability"
unit = "%"
quantitative_result = 88.5


Quick check: viability, T/C of CCCS(=O)(=O)Nc1ccc(F)c(C(=O)c2c[nH]c3ncc(-c4ccc(Cl)cc4)cc23)c1F + CC(C)NCC(C(=O)N1CCN(c2ncnc3c2C(C)CC3O)CC1)c1ccc(Cl)cc1 ?
91.2

Data origin, for the record: PubChem BioAssay AID2060330
